Readout: log10 intrinsic clearance, rat liver microsomes (log10 of the value in mL/min/kg)
Please note: log10 values; quantity intrinsic clearance, rat liver microsomes; unit mL/min/kg.

Examples with answers:
Cc1csc(NC(=O)CCc2ccncc2)n1    1.66
O=c1c2cccn2c2ccccc2n1CCCN1CCC(c2ccc(Cl)cc2)CC1    3.12
Cc1nn(C)c2nc(N3CCN(C)C[C@@H]3c3ccccc3)sc12    2.70

# input Could you tell me which log10 intrinsic clearance, rat liver microsomes is on file for Cc1cccnc1NC(=O)Cc1coc2c(C)c(C)ccc12 ?
# output 3.63

# input Entry under review: Cc1cccc(COc2cccc(/C=C3\C(=O)NN(c4ccccc4)C3=O)c2)c1 . Reported log10 intrinsic clearance, rat liver microsomes?
# output 2.47

# input Tell me the measured log10 intrinsic clearance, rat liver microsomes of CCOc1cc(CN2CCc3c(N)nc(N4CCCC4)nc3C2)ccc1OC , please.
# output 2.45

# input For the compound shown here, CCCn1cnnc1CN(C)Cc1ccc(C(F)(F)F)nc1 , give the reported log10 intrinsic clearance, rat liver microsomes.
# output 1.47

# input # lookup: log10 intrinsic clearance, rat liver microsomes of CCN(CCOC)C(=O)Nc1ccc2occc(=O)c2c1
# output 1.51

# input Query: log10 intrinsic clearance, rat liver microsomes; subject: CCc1cc2c(cc1N1CCC(N3CCOCC3)CC1)C(C)(C)c1[nH]c3cc(C#N)ccc3c1C2=O
# output 1.25

* * *

Readout: log10 intrinsic clearance, rat liver microsomes (log10 of the value in mL/min/kg)
Scale: decimal log of intrinsic clearance, rat liver microsomes, intrinsic clearance, rat liver microsomes in mL/min/kg.

Reference set, count: 5
CN(CCn1cnc(C#N)c1C#N)c1ccccc1    3.03
COCCS(=O)(=O)N1CCC2(Cc3ccccc3C2)C1    2.95
COc1cc2c(NC3CCN(C(C)C)CC3)nc(N3CCC(F)(F)CC3)nc2cc1OCCCN1CCCC1    1.42
Cc1ccccc1CCNC(=O)N(Cc1cccnc1)C1CCN(C)CC1    2.91
O=C(Nc1cccc2ncccc12)[C@H]1CCCN(S(=O)(=O)c2ccccc2)C1    2.74

# input Please report the recorded log10 intrinsic clearance, rat liver microsomes for COc1cc(Nc2ncc3c(n2)-c2ccc(Cl)cc2C(c2c(F)cccc2OC)=NC3)ccc1C(=O)O .
# output 1.31

# input Which log10 intrinsic clearance, rat liver microsomes value is on record for Cc1nc(-c2ccc(S(=O)(=O)N(C)C)cc2)cc(C(C)C)n1 ?
# output 3.35

# input So what does the record say about log10 intrinsic clearance, rat liver microsomes for Cc1nc(NCCN2C(=O)CCC2=O)c2c(C)csc2n1 ?
# output 2.20

# input Consider the compound CN(C)Cc1cccc(N/C(=C2\C(=O)Nc3cc(C(=O)N(C)C)ccc32)c2ccccc2)c1 and give its measured log10 intrinsic clearance, rat liver microsomes.
# output 2.18

* * *

Examples of compounds with documented intrinsic clearance, human liver microsomes follow.

Previously resolved entries follow.
COc1ccc(C(=O)c2ccccc2)c(Oc2nc3c(c(=O)n(C)c(=O)n3C)n2C)c1    21.5 mL/min/kg
CN1C(=O)COc2ccc(NC(=O)CCN3C(=O)COc4ccc(Cl)cc43)cc21    155 mL/min/kg
CCc1cnc(CCNc2cncc(Cl)n2)s1    183 mL/min/kg
O=C(Nc1ccc(COC2CCCC2)cc1)N1CCC(CO)CC1    ≤ 4.74 mL/min/kg
CS(=O)(=O)N1CCC(Nc2ccc3ccc(F)cc3n2)CC1    5.9 mL/min/kg

# input Suppose we examine the compound COc1cc(Nc2c(C#N)cnc3cc(OC)c(OC)cc23)c(Cl)cc1Cl ; what intrinsic clearance, human liver microsomes value has been reported?
# output 161 mL/min/kg

# input Could you tell me which intrinsic clearance, human liver microsomes is on file for CCc1nc(CN2CCC(=O)Nc3cc(F)ccc32)n[nH]1 ?
# output ≤ 4.74 mL/min/kg

# input Endpoint output: intrinsic clearance, human liver microsomes of c1ccc(Oc2cccc(CN(CCN3CCOCC3)Cc3cccnc3)c2)cc1 . Value?
# output 1250 mL/min/kg

# input intrinsic clearance, human liver microsomes for Cc1ccccc1C(=O)N1CCC[C@@H]1Cn1nnn(-c2cccs2)c1=O ?
# output 114 mL/min/kg

# input For the compound shown here, O=c1c2sccc2nc2n1CCN(Cc1cc(F)ccc1F)CC2 , give the reported intrinsic clearance, human liver microsomes.
# output 121 mL/min/kg

# input Bench note: what intrinsic clearance, human liver microsomes did N#CCCN(C(=O)c1cccs1)C12CC3CC(CC(C3)C1)C2 show?
# output 262 mL/min/kg

* * *

Readout: intrinsic clearance, rat liver microsomes (mL/min/kg)
Answer format: numeric, mL/min/kg implied, no suffix.

Use these answered entries as a reference point.
CCc1cc2c(Nc3cnn(CC)c3)ncnc2s1    102
COc1cc(OC)c(OC)cc1CNC(C)(C)C    110
Cc1ccc2oc([C@H]3CCN(Cc4cccs4)C3)nc2c1    2000

# input Can you look up the measured intrinsic clearance, rat liver microsomes of COc1ccc(C)nc1-c1ccc(OC)c(OC)c1OC for me?
# output 359

# input Any idea what its intrinsic clearance, rat liver microsomes is? The compound is O=C(Cc1ccc(Cl)cc1)NCc1ccncc1
# output 35.9

# input Item under review: CCCN(CC)c1ccc(C(=O)N2CCCN(C(C)=O)CC2)cc1 . Reported intrinsic clearance, rat liver microsomes?
# output 308

# input Data request, read-out intrinsic clearance, rat liver microsomes, for O=C(c1n[nH]c2c1COCC2)N1CCC2(C=Cc3ccccc32)CC1
# output 870

# input Tell me the measured intrinsic clearance, rat liver microsomes of O=C1c2cccc3cccc(c23)C(=O)N1CCN1CCOCC1 , please.
# output 424

# input Item Cn1c(=O)n(C2CCCC2)c(=O)c2c(F)cccc21 has what recorded intrinsic clearance, rat liver microsomes?
# output 415

# input Return reported intrinsic clearance, rat liver microsomes; argument: COc1cccc(CC(=O)N2CCOC(c3cc(Nc4nnc(C)s4)cc(C)n3)C2)c1 (configuration not stated)
# output 308

# input Fill blank: measured intrinsic clearance, rat liver microsomes of the compound CCOc1cc(N2CCOC3(CCCC3)C2)ncn1 is ____.
# output 631

# input What does the record list as intrinsic clearance, rat liver microsomes for COc1cccc(Cc2nc3sc4c(c3c(=O)[nH]2)CCSC4)c1 ?
# output 2820

* * *

// boundary case: intrinsic clearance, human liver microsomes equal to 5 L/h/kg maps to No; strictly smaller maps to Yes

CCS(=O)(=O)N1CCC(C(=O)N(C)C2CCCCCCC2)CC1    No
CN(CC(=O)Nc1cccc(S(=O)(=O)N2CCCC2)c1)C1CCCCC1    No
CN(C)c1cncc(-c2ccc(S(=O)(=O)N(C)C)cc2)n1    Yes
CC(C)(C(=O)c1ccccc1)/[N+]([O-])=C/c1ccc(F)cc1    Yes
CS(=O)(=O)NCc1cc2n(n1)CCN(C1Cc3ccccc3C1)C2    Yes
COc1ccc(OC)c(Cn2cnc3cn(C)nc3c2=O)c1    Yes
O=C(NCc1ccc(O)c(O)c1)c1ccc2ccccc2n1    Yes
COc1ccc(OCc2n[nH]c(-c3ncoc3C(C)C)n2)cc1    Yes
CN1CCC(CNc2ccc3ncc(-c4cccc(OC(F)(F)F)c4)n3n2)CC1    No
COc1ccnc(N2CC(O)(C3CC3)C2)n1    Yes

# input Lab note: intrinsic clearance, human liver microsomes threshold 5 L/h/kg. Does this molecule come in strictly under it? CSCC(=O)N1CCN(C(=O)CSC)C2(CCCCC2)C1
# output Yes

* * *

Each entry below lists one item and its recorded intrinsic clearance, rat liver microsomes value.

Past entries and their recorded results:
O=C(NCc1cc(F)cc(F)c1)c1ccccn1    51.6 mL/min/kg
Cn1c(=O)n(-c2ccc(C(C)(C)C#N)cc2)c2c3cc(-c4cnc5ccccc5c4)ccc3ncc21    91.3 mL/min/kg
CSC1(CNc2cc(C)nc(C)n2)CCOCC1    76.1 mL/min/kg
CC(C)N(C)S(=O)(=O)NCCCc1nc2cc(Cl)ccc2[nH]1    2500 mL/min/kg
CCn1cc(CN2CCC(c3nc(N(C)C)ncc3-c3ccc(OC)cc3)CC2)c(C)n1    473 mL/min/kg

# input # lookup: intrinsic clearance, rat liver microsomes of CONC(=O)c1ccccc1Nc1cc(Nc2cc(C)nn2C(C)C)ncc1Cl
# output 262 mL/min/kg

# input Which intrinsic clearance, rat liver microsomes is reported for this molecule? Cc1ccc2c(c1)c(Cn1ccnc1-c1cccc(C)n1)nn2C
# output 1920 mL/min/kg

# input Given Cc1sc2nc(CN3CCCC3)nc(N)c2c1C , state its recorded intrinsic clearance, rat liver microsomes.
# output 2760 mL/min/kg

# input Need intrinsic clearance, rat liver microsomes, item Cc1nc2ccccc2c(C(=O)O)c1C
# output ≤ 10.7 mL/min/kg

# input intrinsic clearance, rat liver microsomes for Cn1nccc1C(=O)C1CCN(C(=O)c2cc(C(C)(C)C)nn2C)CC1 ?
# output 97.9 mL/min/kg

# input Item CCC(=O)NCC[C@@H]1CCc2ccc3c(c21)CCO3 has what recorded intrinsic clearance, rat liver microsomes?
# output 299 mL/min/kg

Where do the numbers come from? From the Biogen ADME set (Fang et al. 2023).
